- systemName: 5-HT2A receptor (Mus musculus)
- Sequence (P35363 whole entry): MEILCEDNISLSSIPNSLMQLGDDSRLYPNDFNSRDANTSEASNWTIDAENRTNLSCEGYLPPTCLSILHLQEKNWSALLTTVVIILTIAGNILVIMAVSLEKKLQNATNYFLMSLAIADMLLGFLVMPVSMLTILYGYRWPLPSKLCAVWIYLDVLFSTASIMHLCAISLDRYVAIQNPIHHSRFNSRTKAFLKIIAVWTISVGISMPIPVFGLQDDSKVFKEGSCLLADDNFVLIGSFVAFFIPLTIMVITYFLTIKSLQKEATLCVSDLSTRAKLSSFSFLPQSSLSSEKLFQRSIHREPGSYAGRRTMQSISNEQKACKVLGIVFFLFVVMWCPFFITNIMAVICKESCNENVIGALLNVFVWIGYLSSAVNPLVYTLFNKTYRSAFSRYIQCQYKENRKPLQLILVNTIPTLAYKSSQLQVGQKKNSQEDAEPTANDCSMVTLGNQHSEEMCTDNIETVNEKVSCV
- assayExplanation: head-twitch response
- Format: in vivo, C57BL/6 mice
- conditionSummary: mice, 1 mg/kg p.o., 15–30 min window
recordedMetric: HTR induction, result in words

{"molecule": "CC(C)[Si](Oc1cccc2[nH]cc(CCN(C)C)c12)(C(C)C)C(C)C [SE02]", "systemName": "5-HT2A receptor (Mus musculus)", "recordedMetric": "HTR induction, result in words", "result": "induced notable HTR"}
{"molecule": "CN(C)CCc1c[nH]c2cccc(O[Si](C)(C)C(C)(C)C)c12 [SE01]", "systemName": "5-HT2A receptor (Mus musculus)", "recordedMetric": "HTR induction, result in words", "result": "induced notable HTR"}
